# Target of assay: KAT-5 (Homo sapiens (Human))
# Protocol description: KAT-5 biochemical inhibition assay (SAMDI mass spectrometry)
# Run conditions: Table 5
pIC50: −log10 of the molar value.
Value type: pIC50

# count of solved cases: 5
Compound	Target of assay	pIC50
Cc1cccc(-c2cc(Cl)c(F)c(C(=O)NNS(=O)(=O)CC3CN(C(=O)OC(C)(C)C)C3)c2)c1	KAT-5 (Homo sapiens (Human))	4.30 to 5.00
Cc1cccc(-c2cc(Cl)c(F)c(C(=O)NNS(=O)(=O)C3CCC(NC(=O)OC(C)(C)C)C3)c2)c1 (stereo not shown)	KAT-5 (Homo sapiens (Human))	4.30 to 5.00
O=C(NNS(=O)(=O)c1cccc(O)c1)c1cc(-c2ccccc2)cc(Cl)c1F	KAT-5 (Homo sapiens (Human))	≥ 6.00
Cc1cccc(-c2cc(Cl)c(F)c(C(=O)NNS(=O)(=O)CC3CNCCN3C)c2)c1 (stereo not shown)	KAT-5 (Homo sapiens (Human))	< 4.00
COCc1cc(Cl)c(F)c(C(=O)NNS(=O)(=O)c2cccc(O)c2)c1	KAT-5 (Homo sapiens (Human))	≥ 5.00

Incoming: Note pIC50 for the compound shown: Cc1cccc(-c2cc(Cl)c(F)c(C(=O)NNS(=O)(=O)C(C)C3CCCN(C(=O)OC(C)(C)C)C3)c2)c1 (stereo not shown)
Outgoing: < 4.00

Incoming: Note pIC50 for the compound shown: Cc1cccc(-c2cc(Cl)c(F)c(C(=O)NNS(=O)(=O)C(C)C3CCCNC3)c2)c1 (stereo not shown)
Outgoing: < 4.00

====

We begin with a simple list: items and their reported pIC50.
# Target of assay: UniProtKB Q92993
# Protocol description: KAT-5 biochemical inhibition assay (SAMDI mass spectrometry)
pIC50: −log10 of the molar value.

Molecule	Observed result
COCCC(=O)N1CCC(CS(=O)(=O)NNC(=O)c2cc(-c3cn(C)cn3)cc(Cl)c2F)C1 (stereo not drawn)	4.30 to 5.00
Cn1cnc(-c2cc(Cl)c(F)c(C(=O)NNS(=O)(=O)c3cccnc3)c2)c1	4.30 to 5.00
Cn1cnc(-c2cc(Cl)c(F)c(C(=O)NNS(=O)(=O)C3CCOCC3)c2)c1	4.30 to 5.00

In the following, a different molecule is considered.
Incoming: Send back UniProtKB Q92993 pIC50 of CN(C(=O)OC(C)(C)C)C1CC(CS(=O)(=O)NNC(=O)c2cc(-c3cn(C)cn3)cc(Cl)c2F)C1 (stereo not drawn) only.
Outgoing: > 5.00

====

# Target of assay: KAT-5 (Homo sapiens (Human), UniProt Q92993)
# Sequence (Q92993 other isoform, or with tags, fused parts or gaps): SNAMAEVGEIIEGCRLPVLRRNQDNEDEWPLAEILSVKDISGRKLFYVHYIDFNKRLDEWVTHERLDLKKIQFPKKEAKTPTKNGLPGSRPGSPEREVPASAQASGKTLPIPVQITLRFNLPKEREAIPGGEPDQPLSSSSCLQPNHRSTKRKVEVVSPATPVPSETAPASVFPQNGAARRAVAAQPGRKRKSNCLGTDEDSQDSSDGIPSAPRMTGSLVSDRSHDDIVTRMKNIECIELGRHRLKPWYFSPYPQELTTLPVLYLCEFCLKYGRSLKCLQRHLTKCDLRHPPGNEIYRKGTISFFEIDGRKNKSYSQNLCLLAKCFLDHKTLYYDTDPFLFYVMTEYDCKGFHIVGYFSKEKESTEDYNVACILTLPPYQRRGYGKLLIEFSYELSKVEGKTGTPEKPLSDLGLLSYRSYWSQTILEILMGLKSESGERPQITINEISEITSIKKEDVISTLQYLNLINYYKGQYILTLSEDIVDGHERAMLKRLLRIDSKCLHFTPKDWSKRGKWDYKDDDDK
# Protocol description: KAT-5 biochemical inhibition assay (SAMDI mass spectrometry)
# Experimental: KAT-5. Enzyme assay buffer was 50 mM Tris pH 8.0, 0.002% Tween20, 0.005% bovine skin gelatin, and 1 mM dithiothreitol (DTT). For determination of IC50 values, compounds were serially diluted with 2% (v/v) DMSO in the final reaction, pre-incubating each dilution of each compound with 40 μL of assay buffer containing KAT-5 enzyme (9 nM final concentration). 10 μL of assay buffer containing 1 μM peptide substrate and 0.5 μM acetyl coenzyme A (final concentrations) was added. […]
pIC50: −log10 of the molar value.
Value type: pIC50

Incoming: Note pIC50 for the compound shown: Cc1ncnn1-c1cc(Cl)c(F)c(C(=O)NNS(=O)(=O)CC2CCOCC2)c1
Outgoing: 4.30 to 5.00

Incoming: Note pIC50 for the compound shown: CCN(C)C(=O)NC1CCC(CS(=O)(=O)NNC(=O)c2cc(-c3cn(C)cn3)cc(Cl)c2F)C1 (stereo not drawn)
Outgoing: > 5.00

Incoming: Note pIC50 for the compound shown: O=C(NNS(=O)(=O)CC1CCCCC1)c1cc(-c2cn(Cc3ncco3)cn2)cc(Cl)c1F
Outgoing: > 5.00

Incoming: Note pIC50 for the compound shown: C[C@@H]1CNC[C@H]1CS(=O)(=O)NNC(=O)c1cc(-c2cn(C)cn2)cc(Cl)c1F
Outgoing: 4.30 to 5.00

Incoming: Note pIC50 for the compound shown: CCn1cnc(C)c1-c1cc(Cl)c(F)c(C(=O)NNS(=O)(=O)CC2CCCCC2)c1
Outgoing: < 4.00

Incoming: Note pIC50 for the compound shown: CN1CCN([C@H]2CC[C@H](CS(=O)(=O)NNC(=O)c3cc(-c4cn(C)cn4)cc(Cl)c3F)CC2)C1=O
Outgoing: > 5.00

Incoming: Note pIC50 for the compound shown: Cn1cnc(-c2cc(Cl)c(F)c(C(=O)NNS(=O)(=O)CC3CCCC(NC(=O)C4CCC4)C3)c2)c1 (stereo not drawn)
Outgoing: > 5.00
